- TESTED TARGET: POLγA:A467T (Homo sapiens, UniProt P54098, A467T)
- Sequence (P54098 whole entry A467T): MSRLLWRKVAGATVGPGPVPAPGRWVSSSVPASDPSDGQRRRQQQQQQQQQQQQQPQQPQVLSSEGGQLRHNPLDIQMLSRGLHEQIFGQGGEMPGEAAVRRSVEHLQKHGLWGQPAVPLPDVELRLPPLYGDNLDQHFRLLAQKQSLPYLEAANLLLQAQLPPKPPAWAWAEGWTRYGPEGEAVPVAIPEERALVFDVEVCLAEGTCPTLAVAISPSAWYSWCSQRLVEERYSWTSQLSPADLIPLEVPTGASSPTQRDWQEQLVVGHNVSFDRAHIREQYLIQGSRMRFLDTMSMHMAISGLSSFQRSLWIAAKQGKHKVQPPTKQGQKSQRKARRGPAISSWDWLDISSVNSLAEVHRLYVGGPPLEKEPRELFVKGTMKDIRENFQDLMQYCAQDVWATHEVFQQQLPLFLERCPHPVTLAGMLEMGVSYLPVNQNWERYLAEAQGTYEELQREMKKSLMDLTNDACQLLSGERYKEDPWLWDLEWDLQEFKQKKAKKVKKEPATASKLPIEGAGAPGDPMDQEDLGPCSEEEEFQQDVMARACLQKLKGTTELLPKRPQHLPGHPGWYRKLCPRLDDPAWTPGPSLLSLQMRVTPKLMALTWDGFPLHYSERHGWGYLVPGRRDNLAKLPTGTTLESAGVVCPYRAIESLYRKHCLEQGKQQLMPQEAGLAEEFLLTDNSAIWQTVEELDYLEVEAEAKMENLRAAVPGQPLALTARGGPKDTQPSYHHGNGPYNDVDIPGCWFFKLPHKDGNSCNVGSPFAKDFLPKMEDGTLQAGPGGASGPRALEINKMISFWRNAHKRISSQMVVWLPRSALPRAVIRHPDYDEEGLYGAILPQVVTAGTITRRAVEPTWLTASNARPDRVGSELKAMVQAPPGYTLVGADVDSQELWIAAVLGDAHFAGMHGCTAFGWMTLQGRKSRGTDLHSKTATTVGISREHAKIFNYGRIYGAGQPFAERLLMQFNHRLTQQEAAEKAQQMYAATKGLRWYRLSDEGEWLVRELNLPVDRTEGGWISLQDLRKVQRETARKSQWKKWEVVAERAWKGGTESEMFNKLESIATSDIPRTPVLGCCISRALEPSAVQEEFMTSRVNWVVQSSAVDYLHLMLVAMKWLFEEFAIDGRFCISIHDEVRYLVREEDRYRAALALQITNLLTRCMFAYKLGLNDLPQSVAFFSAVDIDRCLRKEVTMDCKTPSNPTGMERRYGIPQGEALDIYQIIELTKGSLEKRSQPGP
- Sequence (Q9UHN1 whole entry partner): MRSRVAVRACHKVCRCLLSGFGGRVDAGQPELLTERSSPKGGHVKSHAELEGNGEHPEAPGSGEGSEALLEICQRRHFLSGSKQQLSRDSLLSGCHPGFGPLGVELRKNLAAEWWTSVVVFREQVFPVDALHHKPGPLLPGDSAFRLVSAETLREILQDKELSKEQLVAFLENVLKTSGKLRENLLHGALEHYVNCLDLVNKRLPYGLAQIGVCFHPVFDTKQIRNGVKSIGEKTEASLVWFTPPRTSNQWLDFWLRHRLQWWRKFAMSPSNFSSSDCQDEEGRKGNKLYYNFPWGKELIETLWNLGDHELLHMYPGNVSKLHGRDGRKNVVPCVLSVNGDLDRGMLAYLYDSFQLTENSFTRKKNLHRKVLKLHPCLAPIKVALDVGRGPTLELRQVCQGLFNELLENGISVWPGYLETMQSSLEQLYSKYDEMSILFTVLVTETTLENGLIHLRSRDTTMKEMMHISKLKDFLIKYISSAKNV
- TEST: DNA polymerization assay, POLγA:A467T mutant
- Type: biochemical
- CONDITION SUMMARY: stimulation of polymerase activity, primed M13mp18 ssDNA, 37° C. 2 hours; read-out: A467T AC50
PARAMETER: AC50

Cc1ccc(C)c(S(=O)(=O)Nc2cccc(C(=O)N[C@@H](C)C3CC3)c2)c1: 39 µM
Cc1cc(S(=O)(=O)Nc2cc(F)cc(-c3nccs3)c2)c(C)cc1Cl: > 100 µM
Cc1cc(S(=O)(=O)Nc2cccc3c2CC(=O)N3)c(C)cc1Cl: > 100 µM
Cc1nc2cccc(NS(=O)(=O)c3cc(C)c(Cl)cc3C)c2s1: > 100 µM
Cc1cc(S(=O)(=O)Nc2cccc(-c3cc(C4CC4)[nH]n3)c2)c(C)cc1Cl: 8 µM
Cc1cc(S(=O)(=O)Nc2csc(-c3ccccc3)n2)c(F)cc1Cl: > 100 µM
Cc1csc(-c2ccccc2NS(=O)(=O)c2cc(C)c(Cl)cc2C)n1: > 100 µM
Cc1cc(S(=O)(=O)Nc2ccc3ccn(C(C)C)c3c2)c(C)cc1Cl: 17 µM
Cc1cc(S(=O)(=O)Nc2cn(Cc3ccccc3)cn2)c(C)cc1Cl: > 100 µM
Cc1cc(F)ccc1S(=O)(=O)Nc1csc(-c2ccccc2)n1: > 100 µM

Q: // fetch POLγA:A467T (Homo sapiens, UniProt P54098, A467T) AC50 for "Cc1cnc(-c2ccc(NS(=O)(=O)c3cc(C)c(Cl)cc3C)cc2)s1"
Ans: > 100 µM

Q: Thanks! And "Cc1cc(S(=O)(=O)Nc2cccc(C(=O)NCCO)c2)c(C)cc1Cl" ?
Ans: > 100 µM
